Test system: 422866-222-R5-J1-PDC spheroids with HUVEC/MSC, viability
assay.procedure: Anticancer human tumor 422866-222-R5-J1-PDC patient-derived pancreatic adenocarcinoma cell line growth inhibition [GQUAD]
settings: second compound 0.1 µM; first compound 1 µM; stronger effect = lower value
measure.name: viability, T/C

State its viability, T/C: C=CC(=O)N1CCN(c2nc(=O)n(-c3c(C)ccnc3C(C)C)c3nc(-c4c(O)cccc4F)c(F)cc23)C(C)C1 (stereo not given) + Cc1[nH]c2ccc(F)cc2c1-c1nc2c3cccnc3c3ncccc3c2[nH]1
26.5%

State its viability, T/C: CC1COCCN1c1cc(C2(S(C)(=N)=O)CC2)nc(-c2ccnc3[nH]ccc23)n1 (stereo not given) + Cc1cnc(CNC(=O)c2c(=O)c3ccc(N4CCCN(C)CC4)nc3n3c2sc2ccccc23)cn1
80%

State its viability, T/C: O=C(c1cc(Cc2n[nH]c(=O)c3ccccc23)ccc1F)N1CCN(C(=O)C2CC2)CC1 + Cc1[nH]c2ccc(F)cc2c1-c1nc2c3cccnc3c3ncccc3c2[nH]1
89.2%

State its viability, T/C: COc1cc(C2c3cc4c(cc3C(OC3OC5COC(C)OC5C(O)C3O)C3COC(=O)C23)OCO4)cc(OC)c1O (stereo not given) + CN(C)c1ccc(Nc2c3ccc(NC(=O)CCN4CCCC4)cc3nc3cc(NC(=O)CCN4CCCC4)ccc23)cc1
54.1%

State its viability, T/C: CC1COCCN1c1cc(C2(O)CC3CCC(C2)O3)c2cnn(-c3ccn[nH]3)c2n1 (stereo not given) + Cc1[nH]c2ccc(F)cc2c1-c1nc2c3cccnc3c3ncccc3c2[nH]1
62.2%

###

Could you please report measured viability, T/C for the items listed next?
Test system: 422866-222-R5-J1-PDC spheroids with HUVEC/MSC, viability
assay.procedure: Anticancer human tumor 422866-222-R5-J1-PDC cell line growth inhibition [GQUAD];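 note: spheroids exposed to compounds for seven days before reading; percent viability relative to DMSO vehicle control taken as 100%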
settings: second compound 3.16 µM; first compound 0.0999 µM; stronger effect = lower value
Number in %, nothing else.

State its viability, T/C: CC[C@@]1(O)C(=O)OCc2c1cc1n(c2=O)Cc2cc3c(CN(C)C)c(O)ccc3nc2-1 + CN(C)c1ccc(Nc2c3ccc(NC(=O)CCN4CCCC4)cc3nc3cc(NC(=O)CCN4CCCC4)ccc23)cc1
46.1

State its viability, T/C: Cc1[nH]c2ccccc2c1CCNCc1ccc(/C=C/C(=O)NO)cc1 + CN(C)c1ccc(Nc2c3ccc(NC(=O)CCN4CCCC4)cc3nc3cc(NC(=O)CCN4CCCC4)ccc23)cc1
80.4

State its viability, T/C: Cn1ncnc1[C@H]1c2n[nH]c(=O)c3cc(F)cc(c23)N[C@@H]1c1ccc(F)cc1 + Cc1cnc(CNC(=O)c2c(=O)c3ccc(N4CCCN(C)CC4)nc3n3c2sc2ccccc23)cn1
78.4

State its viability, T/C: CCc1c2c(nc3ccc(O)cc13)-c1cc3c(c(=O)n1C2)COC(=O)[C@]3(O)CC + Cc1[nH]c2ccc(F)cc2c1-c1nc2c3cccnc3c3ncccc3c2[nH]1
37.7

###

Tested on: 422866-222-R5-J1-PDC spheroids with HUVEC/MSC, viability
assay.procedure: Anticancer human tumor 422866-222-R5-J1-PDC cell line growth inhibition [GQUAD];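 note: spheroids exposed to compounds for seven days before reading; percent viability relative to DMSO vehicle control taken as 100%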
settings: second compound 10 µM; first compound 10 µM; stronger effect = lower value
Text: DNA G-quadruplex Stabilizer Agents in Combinations in Complex Spheroids A high-throughput screen of multi-cell type tumor spheroids was designed to identify active combinations of DNA G-quadruplex stabilizer agents and targeted small molecules. […] Compounds. […] If the clinical Cmax for an agent had not been determined, the highest concentration tested was 10 microM. […]
Could you please report measured viability, T/C for the items listed next?
Number in %, nothing else.

State its viability, T/C: Cc1cccc(N(C)C(=O)C2C(O)CCN2c2nc(C)cc(C(F)(F)F)c2C#N)c1 (stereo not given) + Cc1cnc(CNC(=O)c2c(=O)c3ccc(N4CCCN(C)CC4)nc3n3c2sc2ccccc23)cn1
77.7

State its viability, T/C: COc1ccc([C@@H](O)c2cc(-c3ncnc4cc(N5CCOCC5)ccc34)c(F)cc2Cl)nn1 + Cc1[nH]c2ccc(F)cc2c1-c1nc2c3cccnc3c3ncccc3c2[nH]1
33.9

State its viability, T/C: C=CC(=O)N1CCN(c2nc(=O)n(-c3c(C)ccnc3C(C)C)c3nc(-c4c(O)cccc4F)c(F)cc23)C(C)C1 (stereo not given) + Cc1[nH]c2ccc(F)cc2c1-c1nc2c3cccnc3c3ncccc3c2[nH]1
27.9

State its viability, T/C: Nc1ccn(C2OC(CO)C(O)C2(F)F)c(=O)n1 (stereo not given) + Cc1cnc(CNC(=O)c2c(=O)c3ccc(N4CCCN(C)CC4)nc3n3c2sc2ccccc23)cn1
63.4

State its viability, T/C: CC1COCCN1c1cc(C2(O)CC3CCC(C2)O3)c2cnn(-c3ccn[nH]3)c2n1 (stereo not given) + CN(C)c1ccc(Nc2c3ccc(NC(=O)CCN4CCCC4)cc3nc3cc(NC(=O)CCN4CCCC4)ccc23)cc1
88.5

###

Tested on: 422866-222-R5-J1-PDC spheroids with HUVEC/MSC, viability
assay.procedure: Anticancer human tumor 422866-222-R5-J1-PDC cell line growth inhibition [GQUAD];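 note: spheroids exposed to compounds for seven days before reading; percent viability relative to DMSO vehicle control taken as 100%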
settings: second compound 0.1 µM; first compound 0.316 µM; stronger effect = lower value
measure.name: viability, T/C (%)
Number in %, nothing else.

State its viability, T/C: Cc1[nH]c2ccccc2c1CCNCc1ccc(/C=C/C(=O)NO)cc1 + Cc1cnc(CNC(=O)c2c(=O)c3ccc(N4CCCN(C)CC4)nc3n3c2sc2ccccc23)cn1
46.6

State its viability, T/C: Cc1cccc(N(C)C(=O)C2C(O)CCN2c2nc(C)cc(C(F)(F)F)c2C#N)c1 (stereo not drawn) + Cc1cnc(CNC(=O)c2c(=O)c3ccc(N4CCCN(C)CC4)nc3n3c2sc2ccccc23)cn1
86.8

State its viability, T/C: CC1COCCN1c1cc(C2(O)CC3CCC(C2)O3)c2cnn(-c3ccn[nH]3)c2n1 (stereo not drawn) + Cc1cnc(CNC(=O)c2c(=O)c3ccc(N4CCCN(C)CC4)nc3n3c2sc2ccccc23)cn1
35.3

State its viability, T/C: C#Cc1c(F)ccc2cc(O)cc(-c3ncc4c(N5CC6CCC(C5)N6)nc(OCC56CCCN5CC(F)C6)nc4c3F)c12 (stereo not drawn) + Cc1cnc(CNC(=O)c2c(=O)c3ccc(N4CCCN(C)CC4)nc3n3c2sc2ccccc23)cn1
69.7

State its viability, T/C: Nc1ccn(C2OC(CO)C(O)C2(F)F)c(=O)n1 (stereo not drawn) + Cc1[nH]c2ccc(F)cc2c1-c1nc2c3cccnc3c3ncccc3c2[nH]1
52.5

State its viability, T/C: COc1ncnc(C2CC2)c1-c1ncc2cnn(Cc3ccc(-c4nc(C(F)(F)F)cn4C(C)C)cc3)c2n1 + CN(C)c1ccc(Nc2c3ccc(NC(=O)CCN4CCCC4)cc3nc3cc(NC(=O)CCN4CCCC4)ccc23)cc1
109

State its viability, T/C: Cc1[nH]c2ccccc2c1CCNCc1ccc(/C=C/C(=O)NO)cc1 + Cc1[nH]c2ccc(F)cc2c1-c1nc2c3cccnc3c3ncccc3c2[nH]1
94

State its viability, T/C: Cc1[nH]c2ccccc2c1CCNCc1ccc(/C=C/C(=O)NO)cc1 + CN(C)c1ccc(Nc2c3ccc(NC(=O)CCN4CCCC4)cc3nc3cc(NC(=O)CCN4CCCC4)ccc23)cc1
61.5

###

Test system: 422866-222-R5-J1-PDC spheroids with HUVEC/MSC, viability
assay.procedure: Anticancer human tumor 422866-222-R5-J1-PDC cell line growth inhibition [GQUAD];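 note: spheroids exposed to compounds for seven days before reading; percent viability relative to DMSO vehicle control taken as 100%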
settings: second compound 0.0316 µM; first compound 0.316 µM; stronger effect = lower value
Cut-off 90% on viability, T/C: below means true (1), at or above means false (0).

In the record for O=C(c1cc(Cc2n[nH]c(=O)c3ccccc23)ccc1F)N1CCN(C(=O)C2CC2)CC1 + CN(C)c1ccc(Nc2c3ccc(NC(=O)CCN4CCCC4)cc3nc3cc(NC(=O)CCN4CCCC4)ccc23)cc1 , is viability, T/C less than 90%?
false (0)

In the record for CC(=O)O[C@H]1C(=O)[C@@]2(C)[C@H]([C@H](OC(=O)c3ccccc3)[C@]3(O)C[C@H](OC(=O)[C@H](O)[C@@H](NC(=O)c4ccccc4)c4ccccc4)C(C)=C1C3(C)C)[C@]1(OC(C)=O)CO[C@@H]1C[C@@H]2O + Cc1[nH]c2ccc(F)cc2c1-c1nc2c3cccnc3c3ncccc3c2[nH]1 , is viability, T/C less than 90%?
true (1)

In the record for CC(C)(O)C1CCC(Nc2ccc3ncc(-c4cccc(C(F)(F)F)c4)n3n2)CC1 (stereo not given) + Cc1[nH]c2ccc(F)cc2c1-c1nc2c3cccnc3c3ncccc3c2[nH]1 , is viability, T/C less than 90%?
true (1)

In the record for O=C(NO)c1cnc(N2CCN(S(=O)(=O)c3ccc4ccccc4c3)CC2)nc1 + Cc1cnc(CNC(=O)c2c(=O)c3ccc(N4CCCN(C)CC4)nc3n3c2sc2ccccc23)cn1 , is viability, T/C less than 90%?
true (1)

In the record for CC1COCCN1c1cc(-c2ccnn2C)c2ccnc(-c3ccn[nH]3)c2n1 (stereo not given) + Cc1cnc(CNC(=O)c2c(=O)c3ccc(N4CCCN(C)CC4)nc3n3c2sc2ccccc23)cn1 , is viability, T/C less than 90%?
true (1)

In the record for Cn1ncnc1[C@H]1c2n[nH]c(=O)c3cc(F)cc(c23)N[C@@H]1c1ccc(F)cc1 + Cc1cnc(CNC(=O)c2c(=O)c3ccc(N4CCCN(C)CC4)nc3n3c2sc2ccccc23)cn1 , is viability, T/C less than 90%?
true (1)

In the record for C#Cc1c(F)ccc2cc(O)cc(-c3ncc4c(N5CC6CCC(C5)N6)nc(OCC56CCCN5CC(F)C6)nc4c3F)c12 (stereo not given) + CN(C)c1ccc(Nc2c3ccc(NC(=O)CCN4CCCC4)cc3nc3cc(NC(=O)CCN4CCCC4)ccc23)cc1 , is viability, T/C less than 90%?
true (1)

In the record for COc1ncnc(C2CC2)c1-c1ncc2cnn(Cc3ccc(-c4nc(C(F)(F)F)cn4C(C)C)cc3)c2n1 + CN(C)c1ccc(Nc2c3ccc(NC(=O)CCN4CCCC4)cc3nc3cc(NC(=O)CCN4CCCC4)ccc23)cc1 , is viability, T/C less than 90%?
false (0)

In the record for COc1ccc([C@@H](O)c2cc(-c3ncnc4cc(N5CCOCC5)ccc34)c(F)cc2Cl)nn1 + Cc1[nH]c2ccc(F)cc2c1-c1nc2c3cccnc3c3ncccc3c2[nH]1 , is viability, T/C less than 90%?
true (1)

In the record for CCCS(=O)(=O)Nc1ccc(F)c(C(=O)c2c[nH]c3ncc(-c4ccc(Cl)cc4)cc23)c1F + CN(C)c1ccc(Nc2c3ccc(NC(=O)CCN4CCCC4)cc3nc3cc(NC(=O)CCN4CCCC4)ccc23)cc1 , is viability, T/C less than 90%?
false (0)

Origin of measurements: PubChem BioAssay AID2060511
